target_desc: Follicle-stimulating hormone receptor (Homo sapiens, UniProt P23945)
Sequence (P23945 whole entry): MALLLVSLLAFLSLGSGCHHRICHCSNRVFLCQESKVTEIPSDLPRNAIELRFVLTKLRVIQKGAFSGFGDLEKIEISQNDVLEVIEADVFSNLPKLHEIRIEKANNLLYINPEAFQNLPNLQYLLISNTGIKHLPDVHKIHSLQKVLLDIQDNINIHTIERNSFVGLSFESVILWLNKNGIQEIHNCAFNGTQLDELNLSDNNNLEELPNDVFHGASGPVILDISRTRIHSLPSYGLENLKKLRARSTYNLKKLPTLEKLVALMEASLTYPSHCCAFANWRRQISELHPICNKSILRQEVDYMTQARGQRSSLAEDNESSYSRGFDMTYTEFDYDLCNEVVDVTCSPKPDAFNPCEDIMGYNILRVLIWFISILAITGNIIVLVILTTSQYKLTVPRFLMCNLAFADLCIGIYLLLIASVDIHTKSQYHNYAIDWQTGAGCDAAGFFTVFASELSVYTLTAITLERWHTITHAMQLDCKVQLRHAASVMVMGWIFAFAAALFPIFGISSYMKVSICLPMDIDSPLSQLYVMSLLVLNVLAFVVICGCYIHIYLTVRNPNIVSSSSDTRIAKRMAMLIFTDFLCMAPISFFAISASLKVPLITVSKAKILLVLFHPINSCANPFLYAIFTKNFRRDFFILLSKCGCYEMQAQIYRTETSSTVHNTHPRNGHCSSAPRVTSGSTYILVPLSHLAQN
assay: Agonist activity at human FSHR receptor expressed in CHO-K1 cells assessed as stimulation of luciferase activity by CRE-driven luciferase reporter gene assay
Format: functional, cell-based
recorded_conditions: read-out: EC50
Overview of recorded EC50 for various molecules
Response body: numeric value in nM, unit text excluded.

>>> print(df.to_string())
                      smiles_representation  unit_spec  result
0  CSc1nc(-c2cccc(NCC(=O)NCc3cn(CCOCCOCCN=[N+]=[N-])nn3)c2)c2c(N)c(C(=O)NC(C)(C)C)sc2n1         nM     397

IN: Query EC50 for C#CCNC(=O)CNc1cccc(-c2nc(SC)nc3sc(C(=O)NC(C)(C)C)c(N)c23)c1
OUT: 126
